The following binders are listed with their measured ADCC EC50 [nM], LP-1 values.
Biological target: T1, human CD38 (human, UniProt P28907 1-300)
T1 sequence: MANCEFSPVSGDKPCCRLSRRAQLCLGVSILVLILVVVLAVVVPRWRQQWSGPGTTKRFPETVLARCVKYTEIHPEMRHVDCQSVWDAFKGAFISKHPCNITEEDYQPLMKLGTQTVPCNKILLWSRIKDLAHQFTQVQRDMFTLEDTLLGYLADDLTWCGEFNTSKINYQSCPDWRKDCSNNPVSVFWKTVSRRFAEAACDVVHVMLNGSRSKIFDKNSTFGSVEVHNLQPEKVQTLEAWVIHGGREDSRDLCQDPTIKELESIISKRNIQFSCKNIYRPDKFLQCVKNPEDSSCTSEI
Test: cell-based or functional assay
Numeric answer only, unit nM assumed.

Some binders with known ADCC EC50 [nM], LP-1 results, for comparison:
{"binder": "MOR03100 human IgG1 (antibody, V domains shown) VH: QVQLVESGGGLVQPGGSLRLSCAASGFTFSSNGMSWVRQAPGKGLEWVSNISYLSSSTYYADSVKGRFTISRDNSKNTLYLQMNSLRAEDTAVYYCARFYGYFNYADVWGQGTLVTVSS VL: DIELTQPPSVSVAPGQTARISCSGDNIGHYYASWYQQKPGQAPVLVIYRDNDRPSGIPERFSGSNSGNTATLTISGTQAEDEADYYCQSYDYLHDFVFGGGTKLTVLG", "measured-number": 1}
{"binder": "MOR03079 human IgG1 (antibody, V domains shown) VH: QVQLVESGGGLVQPGGSLRLSCAASGFTFSNYGMHWVRQAPGKGLEWVSNIRSDGSWTYYADSVKGRFTISRDNSKNTLYLQMNSLRAEDTAVYYCARRYWSKSHASVTDYWGQGTLVTVSS VL: DIQMTQSPSSLSASVGDRVTITCRASQDISAFLNWYQQKPGKAPKLLIYKVSNLQSGVPSRFSGSGSGTDFTLTISSLQPEDFATYYCQQAYSGSITFGQGTKVEIKR", "measured-number": 0.09}
{"binder": "MOR03080 human IgG1 (antibody, V domains shown) VH: QVQLVESGGGLVQPGGSLRLSCAASGFTFSSYGMHWVRQAPGKGLEWVSNIYSDGSNTFYADSVKGRFTISRDNSKNTLYLQMNSLRAEDTAVYYCARNMYRWPFHYFFDYWGQGTLVTVSS VL: DIELTQPPSVSVAPGQTARISCSGDNIGNKYVSWYQQKPGQAPVVVIYGDNNRPSGIPERFSGSNSGNTATLTISGTQAEDEADYYCSSYDSSYFVFGGGTKLTVLG", "measured-number": 0.17}

Proceeding to the next binder to report its ADCC EC50 [nM], LP-1.
Item under review: MOR03077 human IgG1 (antibody, V domains shown) VH: QVQLVQSGAEVKKPGASVKVSCKASGYTFTSYSINWVRQAPGQGLEWMGYIDPNRGNTNYAQKFQGRVTMTRDTSISTAYMELSSLRSEDTAVYYCAREYIYFIHGMLDFWGQGTLVTVSS VL: DIVMTQSPLSLPVTPGEPASISCRSSQSLLFIDGNNYLNWYLQKPGQSPQLLIYLGSNRASGVPDRFSGSGSGTDFTLKISRVEAEDVGVYYCQQYSSKSATFGQGTKVEIKR . Reported ADCC EC50 [nM], LP-1?
0.6
